Biological target: human OT7T175 (metastin receptor) (human, UniProt Q969F8 1-398)
Sequence (Q969F8 whole entry L364H): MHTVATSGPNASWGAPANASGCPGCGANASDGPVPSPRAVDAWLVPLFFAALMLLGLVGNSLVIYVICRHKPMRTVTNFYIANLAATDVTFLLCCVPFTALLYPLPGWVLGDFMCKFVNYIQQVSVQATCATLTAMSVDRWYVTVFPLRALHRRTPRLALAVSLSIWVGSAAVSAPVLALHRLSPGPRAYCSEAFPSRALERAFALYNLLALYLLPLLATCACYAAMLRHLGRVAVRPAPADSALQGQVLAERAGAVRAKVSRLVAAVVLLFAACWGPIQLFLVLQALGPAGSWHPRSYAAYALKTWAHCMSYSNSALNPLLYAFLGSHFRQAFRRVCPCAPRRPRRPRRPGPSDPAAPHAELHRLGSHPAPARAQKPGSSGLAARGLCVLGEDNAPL
Assay: cell-based or functional assay
Square brackets hold non-standard residues; d marks the D form. Ends that are not written are not given here. Arg(Me) = CNC(=N)NCCC[C@H](N)C(=O)O; azaGly = NNC(=O)O
Below is a list of entries, each paired with its recorded intracellular Ca ion level-increasing activity (FLIPR) value.

1. [dY]NWNAFGL[Arg(Me)]F-NH2 (N-terminus assumed; SMILES CNC(=N)NCCC[C@H](NC(=O)[C@H](CC(C)C)NC(=O)CNC(=O)[C@H](Cc1ccccc1)NC(=O)[C@H](C)NC(=O)[C@H](CC(N)=O)NC(=O)[C@H](Cc1c[nH]c2ccccc12)NC(=O)[C@H](CC(N)=O)NC(=O)[C@H](N)Cc1ccc(O)cc1)C(=O)N[C@@H](Cc1ccccc1)C(N)=O) [Compound No. 212: [D-Tyr1,Ala5,Arg(Me)9]MS10]	10 specific activity to metastin (1-54)
2. [dY][dN]WNSF[azaGly]LR(Me)F-NH2 [Compound No. 237: [D-Tyr1,D-Asn2,AZaGly7,Arg(Me)9]MS10]	3 specific activity to metastin (1-54)

We next turn to a different binder, shown below.
Query string: Identify intracellular Ca ion level-increasing activity (FLIPR) associated with the binder [dY]NINSFGL[Arg(Me)]F-NH2 (N-terminus assumed; SMILES CC[C@H](C)[C@H](NC(=O)[C@H](CC(N)=O)NC(=O)[C@H](N)Cc1ccc(O)cc1)C(=O)N[C@@H](CC(N)=O)C(=O)N[C@@H](CO)C(=O)N[C@@H](Cc1ccccc1)C(=O)NCC(=O)N[C@@H](CC(C)C)C(=O)N[C@@H](CCCNC(=N)NC)C(=O)N[C@@H](Cc1ccccc1)C(N)=O) [Compound No. 206: [D-Tyr1,Ile3,Arg(Me)9]MS10]
Result string: 10 specific activity to metastin (1-54)
